Tested on: HeLa
EXPERIMENT: Cytotoxicity against human HeLa cells measured after 2 days by MTT assay
Type: functional, cell-based
STATED_CONDITIONS: 48 h
pIC50: −log10 of the molar value.
pIC50 vs 6: at or above is YES, below is NO.

{"columns": ["SMILES_REPRESENTATION", "ANSWER_LABEL"],
 "data": [
  ["Cc1ccc2c(=O)[nH]c(-c3cccc(F)c3)nc2c1", "NO"],
  ["CCN(CC)c1ccc2nc(-c3cccc4ccccc34)[nH]c(=O)c2c1", "YES"],
  ["CCN(CC)c1ccc2nc(-c3ccccc3C(F)(F)F)[nH]c(=O)c2c1", "YES"],
  ["COc1cccc(-c2nc3ccc(N4CCCCC4)cc3c(=O)[nH]2)c1OC", "NO"],
  ["Cc1ccc2c(=O)[nH]c(-c3cccc(C(F)(F)F)c3)nc2c1", "NO"],
  ["Cc1ccc2nc(-c3cccc(F)c3)[nH]c(=O)c2c1", "NO"],
  ["Cc1ccc2c(=O)[nH]c(-c3ccccc3N(C)C)nc2c1", "NO"],
  ["O=c1[nH]c(-c2cccc3ccccc23)nc2ccc(N3CCCCC3)cc12", "YES"],
  ["Cc1cccc(-c2nc3ccc(C)cc3c(=O)[nH]2)c1", "NO"],
  ["Cc1ccc2c(=O)[nH]c(-c3cccc(OC(F)(F)F)c3)nc2c1", "NO"]
]}
